All values here come from the METLIN SMRT retention time set (Domingo-Almenara et al. 2019).

Experiment: gradient 5% acetonitrile 3 min, to 50% in 2 min, to 85% in 15 min, held 3 min, 100 µL/min
Settings: column: Zorbax Extend-C18 2.1 x 50 mm; eluents: water / acetonitrile, 0.1% formic acid
quantity: RP-LC retention time (s)

Below, 10 compounds whose answers are already recorded.
{"compound": "Cc1c(-c2nsc(Nc3ccccc3)n2)nnn1-c1ccccc1", "unit.annotation": "s", "RP-LC retention time": 946}
{"compound": "Cc1cccc(NS(=O)(=O)c2ccc(-c3nnc(C4CCC4)o3)o2)c1C", "unit.annotation": "s", "RP-LC retention time": 949}
{"compound": "CC(CNC(=O)c1nc(Cn2c(=O)oc3ccc(Cl)cc32)no1)c1ccccc1 (stereo not given)", "unit.annotation": "s", "RP-LC retention time": 796}
{"compound": "CCOc1ccccc1NC(=O)NC1CCN(c2cc(N3CCCC3)cnn2)C1 (stereo not given)", "unit.annotation": "s", "RP-LC retention time": 594}
{"compound": "CCc1ccc(NC(=O)Cn2nc(N3CCCC(C)C3)c3ccccc3c2=O)cc1 (stereo not given)", "unit.annotation": "s", "RP-LC retention time": 1160}
{"compound": "CS(=O)(=O)N1CCC(OC2CCN(C(=O)Nc3ccc(Cl)cc3F)CC2)CC1", "unit.annotation": "s", "RP-LC retention time": 783}
{"compound": "COc1ccc(N2CCCn3c2nc2c3c(=O)n(C)c(=O)n2C)cc1", "unit.annotation": "s", "RP-LC retention time": 568}
{"compound": "Cc1ccc2nc(NC(=O)CN3CCc4nc(NC(=O)C5CC5)sc4C3)sc2c1", "unit.annotation": "s", "RP-LC retention time": 600}
{"compound": "Cc1ccc(-c2nc3cnccn3c2Nc2cc(C)cc(C)c2)cc1", "unit.annotation": "s", "RP-LC retention time": 1040}
{"compound": "COc1ccc2c(CCNC(=O)c3ccc(F)cc3)c[nH]c2c1", "unit.annotation": "s", "RP-LC retention time": 778}

I = COCCNC(=O)c1nc2ccccn2c1-c1ccc(Cl)cc1
II = CCNS(=O)(=O)c1cccnc1Nc1cc(C)cc(C)c1
Data request: Quick one: lower RP-LC retention time, I or II ? Answer with the label corresponding to your selection.
Data returned: I

###

Assay: gradient 5% acetonitrile 3 min, to 50% in 2 min, to 85% in 15 min, held 3 min, 100 µL/min
Conditions: column: Zorbax Extend-C18 2.1 x 50 mm; eluents: water / acetonitrile, 0.1% formic acid
quantity: RP-LC retention time (s)

{"molecule": "CCOC(=O)CNC(=O)NC(C)C(=O)N1CCc2ccccc21 (stereo not given)", "observed.result": 687}
{"molecule": "CC(C)c1cccc(NC(=O)c2cn(C)nc2S(=O)(=O)N2CCSCC2)c1", "observed.result": 1090}
{"molecule": "COc1cccc(NC(=O)NC2CCN(c3cc(C)cc(C)c3)C2=O)c1 (stereo not given)", "observed.result": 870}
{"molecule": "CCOc1ccccc1NC(=O)N1CCCC1c1nc(-c2ccc(OC)cc2)no1 (stereo not given)", "observed.result": 1100}
{"molecule": "CC(=O)Nc1nsc(N2CCCC(C(=O)N3CCN(c4cc(C)ccc4C)CC3)C2)n1 (stereo not given)", "observed.result": 843}

###

Assay: gradient 5% acetonitrile 3 min, to 50% in 2 min, to 85% in 15 min, held 3 min, 100 µL/min
Details: column: Zorbax Extend-C18 2.1 x 50 mm; eluents: water / acetonitrile, 0.1% formic acid
quantity: RP-LC retention time (s)

{"structure.notation": "CCOc1coc(C(=O)NCc2ccccc2OC)cc1=O", "RP-LC retention time / s": 644}
{"structure.notation": "CCn1cc(C(=O)NCc2ccccc2)c2cccnc21", "RP-LC retention time / s": 782}
{"structure.notation": "Cc1ccc(-c2noc(-c3nn(CC(=O)NC(C)C)c4ccccc34)n2)cc1", "RP-LC retention time / s": 1080}

a = O=C(Cc1nnc(-c2ccc3ncccc3c2)o1)NCc1ccccc1F
b = Cc1nc(CC(=O)Nc2nc(-c3cccc(Cl)c3)c(C)s2)cs1
Data request: Quick one: lower RP-LC retention time, a or b ? Answer with the label corresponding to your selection.
Data returned: a

###

Assay: gradient 5% acetonitrile 3 min, to 50% in 2 min, to 85% in 15 min, held 3 min, 100 µL/min
Settings: column: Zorbax Extend-C18 2.1 x 50 mm; eluents: water / acetonitrile, 0.1% formic acid
quantity: RP-LC retention time (s)

{"compound": "Cc1nc(N2CCCC(C(=O)Nc3ccc(F)cc3)C2)c2c(C)c(C)oc2n1 (stereo not given)", "unit.annotation": "s", "RP-LC retention time": 910}
{"compound": "Cn1nnc2cc(CNC(=O)c3ccc(F)cc3)ccc21", "unit.annotation": "s", "RP-LC retention time": 686}
{"compound": "CC1(C(=O)NCc2ccc(F)cc2)Cn2cnc(C(=O)N3CCOCC3)c2C(=O)N1C1CC1 (stereo not given)", "unit.annotation": "s", "RP-LC retention time": 616}
{"compound": "COC(C)C(O)(C(=O)OCC1=CCN2CC[C@H](O)[C@@H]12)C(C)C (stereo not given in full)", "unit.annotation": "s", "RP-LC retention time": 644}
{"compound": "COc1ccc(CC(=O)N2CCN(c3ccc(-c4nc(C)cs4)cn3)CC2)cc1OC", "unit.annotation": "s", "RP-LC retention time": 788}

###

Assay: gradient 5% acetonitrile 3 min, to 50% in 2 min, to 85% in 15 min, held 3 min, 100 µL/min
Details: column: Zorbax Extend-C18 2.1 x 50 mm; eluents: water / acetonitrile, 0.1% formic acid
quantity: RP-LC retention time (s)

Below, 3 compounds whose answers are already recorded.
{"compound": "COc1ccc(C(=O)N2CC(n3cc(COCC4CC4)nn3)C2)cc1", "unit.annotation": "s", "RP-LC retention time": 712}
{"compound": "O=C(c1cnn(-c2cccc(F)c2)c1-n1cccc1)N1CCN(c2ccccn2)CC1", "unit.annotation": "s", "RP-LC retention time": 664}
{"compound": "Cc1cccc(-c2ncccc2CNS(=O)(=O)c2cccc(Cl)c2)c1", "unit.annotation": "s", "RP-LC retention time": 763}

P = CCOc1nc2ccccc2nc1N1CCCC(C(=O)Nc2ccc(Br)cc2C)C1 (centres undefined)
Q = Cn1cc(-c2cc3n(n2)CCC(=O)N3CC(=O)NCc2ccccn2)c2ccccc21
Data request: So which one has the bigger RP-LC retention time here, P or Q ? Answer with the label corresponding to your selection.
Data returned: P

I = Cc1cc2nn(CC(=O)Nc3ccc(F)cc3)c(=O)n2c(Nc2ccc(F)cc2)n1
II = O=C(c1nnc(-c2ccc(S(=O)(=O)N3CCCC3)cc2)o1)N1CCN(c2ccccn2)CC1
Data request: Quick one: lower RP-LC retention time, I or II ? Answer with the label corresponding to your selection.
Data returned: II
(II: 650 s, I: 972 s)

P = COC(=O)c1ccc(NC(=O)Cn2cccc(-c3nc(-c4ccc(F)cc4)no3)c2=O)cc1
Q = Cc1ccccc1CN1CCN(CC(=O)N2CCN(Cc3ccccc3)CC2)C(=O)C1=O
Data request: Quick one: lower RP-LC retention time, P or Q ? Answer with the label corresponding to your selection.
Data returned: Q
(Q: 609 s, P: 877 s)

###

Assay: gradient 5% acetonitrile 3 min, to 50% in 2 min, to 85% in 15 min, held 3 min, 100 µL/min
Conditions: column: Zorbax Extend-C18 2.1 x 50 mm; eluents: water / acetonitrile, 0.1% formic acid
quantity: RP-LC retention time (s)

Below, 5 compounds whose answers are already recorded.
{"compound": "Clc1ccc(Cc2noc(Cc3nc(-c4ccccc4)cs3)n2)cc1", "RP-LC retention time [s]": 1170}
{"compound": "CN(C)N1C(=O)c2c(Cl)c(Cl)c(Cl)c(Cl)c2C1=O", "RP-LC retention time [s]": 1080}
{"compound": "CS(=O)(=O)c1ccc(Nc2nc(C(=O)NCC3CCCO3)cs2)cc1 (centres undefined)", "RP-LC retention time [s]": 636}
{"compound": "CCOC(=O)c1cccc(NC(=O)C2CCN(C(=O)C3Sc4ccccc4NC3=O)CC2)c1 (centres undefined)", "RP-LC retention time [s]": 812}
{"compound": "Cc1sc(-c2nnc(C(=O)N3CCCCC3)o2)cc1S(=O)(=O)NC1CC1", "RP-LC retention time [s]": 824}

I = CCOc1cc(C(=O)NC(C(=O)Nc2nc3ccccc3[nH]2)C(C)CC)cc(OCC)c1OCC (centres undefined)
II = CCCN(CCC)S(=O)(=O)c1ccc(C(=O)Nc2nc3c(s2)CCc2ccccc2-3)cc1
Data request: Quick one: lower RP-LC retention time, I or II ? Answer with the label corresponding to your selection.
Data returned: I
